Provide the reported TF1 Cell Proliferation Inhibition Assay IC50 of each item.
target: human NGF (R&D system) (human, UniProt P01138 122-241); assay: cell-based or functional assay
Sequence (P01138 122-241 limits assumed): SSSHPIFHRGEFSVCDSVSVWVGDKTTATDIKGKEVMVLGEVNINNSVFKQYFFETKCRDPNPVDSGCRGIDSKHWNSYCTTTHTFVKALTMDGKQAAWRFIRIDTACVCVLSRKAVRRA
One number for each entry, in pM.

For orientation, consider the following solved cases.
Request: What measured TF1 Cell Proliferation Inhibition Assay IC50 goes with Ab6 (antibody, human IgG1, V domains shown) VH: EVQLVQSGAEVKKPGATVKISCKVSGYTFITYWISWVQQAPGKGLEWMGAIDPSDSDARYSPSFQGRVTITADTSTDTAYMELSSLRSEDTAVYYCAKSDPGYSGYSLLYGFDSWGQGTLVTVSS VL: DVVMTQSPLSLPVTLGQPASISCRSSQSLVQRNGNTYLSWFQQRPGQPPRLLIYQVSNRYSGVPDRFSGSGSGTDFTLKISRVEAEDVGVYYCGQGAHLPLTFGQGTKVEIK ?
Response: 170

Request: Let us now turn to Ab54 (antibody, human IgG1, V domains shown) VH: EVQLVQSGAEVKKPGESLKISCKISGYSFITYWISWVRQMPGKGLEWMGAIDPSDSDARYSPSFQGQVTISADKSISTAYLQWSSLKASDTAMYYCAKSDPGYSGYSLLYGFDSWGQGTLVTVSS VL: DVVMTQSPLSLPVTLGQPASISCRSSQSLVQRNGNTYLSWYQQRPGQSPRLLIYQVSNRYSGVPDRFSGSGSGTDFTLKISRVEAEDVGVYYCGQGAHLPLTFGQGTKVEIK
Response: 184

Request: Let us now turn to Ab37 (antibody, human IgG1, V domains shown) VH: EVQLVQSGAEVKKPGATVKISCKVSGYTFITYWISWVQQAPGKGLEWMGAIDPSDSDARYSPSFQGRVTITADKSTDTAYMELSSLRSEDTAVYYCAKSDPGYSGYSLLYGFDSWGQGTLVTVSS VL: DIVMTQSPLSLPVTLGQPASISCRSSQSLVQRNGNTYLSWFQQRPGQSPRLLIYQVSNRYSGVPDRFSGSGSGTDFTLKISRVEAEDVGVYYCGQGAHLPLTFGQGTKVEIK
Response: 257

Note: attention shifts to another entry.
Request: What measured TF1 Cell Proliferation Inhibition Assay IC50 goes with Ab4 (antibody, human IgG1, V domains shown) VH: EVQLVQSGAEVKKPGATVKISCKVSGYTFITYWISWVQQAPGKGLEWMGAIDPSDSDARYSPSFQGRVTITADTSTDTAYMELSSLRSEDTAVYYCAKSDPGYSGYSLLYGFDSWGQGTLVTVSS VL: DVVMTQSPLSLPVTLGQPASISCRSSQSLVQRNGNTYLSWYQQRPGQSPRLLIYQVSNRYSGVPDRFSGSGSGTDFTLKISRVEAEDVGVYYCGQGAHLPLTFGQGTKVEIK ?
Response: 174
